assay target: Cytochrome P450 3A4 (Homo sapiens)
test details: qHTS Assay for Activators of Cytochrome P450 3A4 (AID 885); further: nearly all actives have a fitted effect of over 65% in size
experimental parameters: recombinant CYP3A4, Luciferin-PPXE luminescence, 60 min; series mostly up to 57.1 µM
Activity calls are given as the source filed them. The call rests on the fitted dose curve; in most records, active means well fitted activation curve with a large enough effect; inconclusive means small, poorly fitted or top-dose-only effect; inactive means no such curve, though single readings can be large or run the other way.
Labels: active, inactive

[[record]]
structure_smiles = "N#CC(C#N)=Cc1ccc([N+](=O)[O-])c(O)c1"
assay_target = "Cytochrome P450 3A4 (Homo sapiens)"
label_value = "inactive"

[[record]]
structure_smiles = "CC(C)COC(=O)OCN1C(=O)CN(CCN2CC(=O)N(COC(=O)OCC(C)C)C(=O)C2)CC1=O"
assay_target = "Cytochrome P450 3A4 (Homo sapiens)"
label_value = "inactive"

[[record]]
structure_smiles = "C=CCN1C[C@H](C)N([C@@H](c2ccccc2)c2ccc(C(=O)N(CC)CC)cc2)C[C@H]1C"
assay_target = "Cytochrome P450 3A4 (Homo sapiens)"
label_value = "inactive"

[[record]]
structure_smiles = "O=C1Nc2ccccc2C2(CCN(CCc3ccc(C(F)(F)F)cc3)CC2)O1"
assay_target = "Cytochrome P450 3A4 (Homo sapiens)"
label_value = "active"

[[record]]
structure_smiles = "Cc1c(C(=O)c2ccc3ccccc3c2)c2cccc3c2n1[C@H](CN1CCOCC1)CO3"
assay_target = "Cytochrome P450 3A4 (Homo sapiens)"
label_value = "inactive"

[[record]]
structure_smiles = "NC(=NCc1ccc(Cl)cc1)SCCCc1cnc[nH]1"
assay_target = "Cytochrome P450 3A4 (Homo sapiens)"
label_value = "inactive"


Data origin, for the record: PubChem BioAssay (NCATS)
